Molecular target: Recombinant human MMP-2 (Homo sapiens, UniProt P08253)
Construct: made in house
Sequence (P08253 110-660): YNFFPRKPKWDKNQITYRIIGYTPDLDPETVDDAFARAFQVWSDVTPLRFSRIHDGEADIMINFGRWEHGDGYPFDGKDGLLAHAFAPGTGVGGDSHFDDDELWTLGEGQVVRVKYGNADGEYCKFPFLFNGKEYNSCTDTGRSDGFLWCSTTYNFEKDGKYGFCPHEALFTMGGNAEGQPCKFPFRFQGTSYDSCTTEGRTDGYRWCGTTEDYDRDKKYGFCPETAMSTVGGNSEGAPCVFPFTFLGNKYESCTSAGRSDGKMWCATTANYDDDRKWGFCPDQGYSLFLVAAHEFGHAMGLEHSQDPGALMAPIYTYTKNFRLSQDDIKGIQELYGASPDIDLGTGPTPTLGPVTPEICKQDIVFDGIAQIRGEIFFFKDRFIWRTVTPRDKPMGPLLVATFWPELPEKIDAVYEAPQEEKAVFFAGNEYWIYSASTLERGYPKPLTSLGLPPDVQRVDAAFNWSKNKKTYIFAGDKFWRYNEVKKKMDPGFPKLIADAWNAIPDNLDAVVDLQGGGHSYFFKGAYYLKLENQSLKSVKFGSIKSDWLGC
Assay: biochemical
Conditions: fluorogenic MCA-peptide substrate, pH 7.5, room temperature; read-out: MMP-2 IC50
pIC50: −log10 of the molar value.
Note to self: values exactly at 7 are condition met. So pIC50 at or above 7 is condition met, below is condition not met.

These solved cases illustrate the format of a correct answer.
COc1ccc(C(=O)C2CCN(c3ccc(S(=O)(=O)C4(C(=O)NO)CCN(C(=O)c5ccco5)CC4)cc3)CC2)cc1; condition not met
COCCN1CCC(C(=O)NO)(S(=O)(=O)c2ccc(N3CCC(C(=O)c4ccc(CC(C)C)cn4)CC3)cc2)CC1; condition met

*Q* Determine whether measured pIC50 meets or exceeds 7 for COCCN1CCC(C(=O)NO)(S(=O)(=O)c2ccc(N3CCC(C(=O)c4ccc(CC5CCC5)cc4)CC3)cc2)CC1
*A* condition not met

*Q* Determine whether measured pIC50 meets or exceeds 7 for O=C(NO)C1(S(=O)(=O)c2ccc(N3CCC(c4ccc(Cl)cc4)CC3)cc2)CCN(C2CC2)CC1 [Example 261]
*A* condition met

*Q* Determine whether measured pIC50 meets or exceeds 7 for CS(=O)(=O)N1CCC(C(=O)NO)(S(=O)(=O)c2ccc(N3CCC(C(=O)c4ccc5ccccc5c4)CC3)cc2)CC1
*A* condition not met

----------
Target: Recombinant human MMP-2 (Homo sapiens, UniProt P08253)
Construct: made in house
Assay: biochemical
Settings: fluorogenic MCA-peptide substrate, pH 7.5, room temperature; read-out: MMP-2 IC50
recordedMetric: IC50

The following molecules have reported results that may help.
COCCN1CCC(C(=O)NO)(S(=O)(=O)c2ccc(N3CCC(C(=O)c4ccc(OC(C)C)c(C)c4)CC3)cc2)CC1 [Example 191]; 2290 nM
CN(C)CCN1CCN(C(=O)C2CCN(c3ccc(S(=O)(=O)C4(C(=O)NO)CCOCC4)cc3)CC2)CC1 [Example 19]; 10000 nM
COCCN1CCC(C(=O)NO)(S(=O)(=O)c2ccc(N3CCC(C(=O)c4ccc(CCC(C)O)cc4)CC3)cc2)CC1 (stereo not shown) [Example 245]; 38.6 nM

*Q* Would you mind telling me what IC50 value was observed for COCCN1CCC(C(=O)NO)(S(=O)(=O)c2ccc(N3CCC(C(=O)c4ccc(COCC(C)C)s4)CC3)cc2)CC1 [Example 243] ?
*A* 56 nM

*Q* Would you mind telling me what IC50 value was observed for Cc1cc(C(=O)C2CCN(c3ccc(S(=O)(=O)C4(C(=O)NO)CCN(C5CC5)CC4)cc3)CC2)ccc1Cl [Example 214] ?
*A* 160 nM

*Q* Would you mind telling me what IC50 value was observed for CC(C)N1CCN(C(=O)C2CCN(c3ccc(S(=O)(=O)C4(C(=O)NO)CCOCC4)cc3)CC2)CC1 [Example 15] ?
*A* 5500 nM

*Q* Would you mind telling me what IC50 value was observed for O=C(NO)C1(S(=O)(=O)c2ccc(N3CCC(SCc4ccc(OC(F)(F)F)cc4)CC3)cc2)CCNCC1 [Example 146] ?
*A* 200 nM
